// inhibition lookup, one value per entry
Target: Microtubule-associated protein tau (Homo sapiens) (UniProt P10636)
Sequence (P10636 whole entry, looked up): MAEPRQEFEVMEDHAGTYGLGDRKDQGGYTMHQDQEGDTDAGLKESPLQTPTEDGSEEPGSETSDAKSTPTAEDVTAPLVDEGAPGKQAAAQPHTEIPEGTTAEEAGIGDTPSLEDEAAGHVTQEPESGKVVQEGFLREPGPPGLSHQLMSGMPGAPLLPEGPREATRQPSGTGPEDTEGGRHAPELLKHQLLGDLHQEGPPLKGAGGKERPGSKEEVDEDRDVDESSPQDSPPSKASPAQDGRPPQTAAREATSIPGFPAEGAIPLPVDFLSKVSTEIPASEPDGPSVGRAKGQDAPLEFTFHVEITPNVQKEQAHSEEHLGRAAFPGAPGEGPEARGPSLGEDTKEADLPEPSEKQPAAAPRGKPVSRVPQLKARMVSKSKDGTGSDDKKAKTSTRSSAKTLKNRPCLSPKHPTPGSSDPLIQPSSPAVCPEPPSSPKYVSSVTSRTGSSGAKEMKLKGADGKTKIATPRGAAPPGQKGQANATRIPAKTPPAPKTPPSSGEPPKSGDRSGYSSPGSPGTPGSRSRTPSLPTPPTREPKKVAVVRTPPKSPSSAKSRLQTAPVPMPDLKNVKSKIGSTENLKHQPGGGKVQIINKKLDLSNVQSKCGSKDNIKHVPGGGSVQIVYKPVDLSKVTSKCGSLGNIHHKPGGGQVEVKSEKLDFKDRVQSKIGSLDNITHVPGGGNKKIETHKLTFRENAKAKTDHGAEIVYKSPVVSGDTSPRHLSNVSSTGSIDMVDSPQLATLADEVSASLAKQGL
Assay: blockers of AD brain-seeded tau fibril growth – biochemical, seed amplification, ThT fluorescence, primary screen (AID 2061166)
Conditions: Recombinant tau seeded by AD brain, ThT fluorescence AUC; at 100 µM; hits give high values
Field format: number, assumed %, no unit text.

Answered cases to consult:
>  <Molecule>
O=c1c2ccccc2[se]n1-c1ccccc1

>  <Value Units>
%

>  <inhibition>
51.6

$$$$
>  <Molecule>
O=C(CS(=O)C(c1ccccc1)c1ccccc1)NO (stereo not drawn)

>  <Value Units>
%

>  <inhibition>
7.82

$$$$

# evaluate next
Task item: Fill: inhibition (Microtubule-associated protein tau (Homo sapiens) (UniProt P10636)) for this molecule COc1ccc(C(CN(C)C)C2(O)CCCCC2)cc1 (stereo not drawn)
Reply: 40.8
